run description: total protein half-life in vivo (active degradation + dilution); higher = more stable protein
details: wild type E. coli NCM3722; growth: N-lim chemostat; doubling time 6 h
quantity measured: total protein half-life in vivo (h)
One number for each entry, in h.

So what's the measured total protein half-life in vivo for this one? MVLMIVSGRSGSGKSVALRALEDMGFYCVDNLPVVLLPDLARTLADREISAAVSIDVRNMPESPEIFEQAMSNLPDAFSPQLLFLDADRNTLIRRYSDTRRLHPLSSKNLSLESAIDKESDLLEPLRSRADLIVDTSEMSVHELAEMLRTRLLGKRERELTMVFESFGFKHGIPIDADYVFDVRFLPNPHWDPKLRPMTGLDKPVAAFLDRHTEVHNFIYQTRSYLELWLPMLETNNRSYLTVAIGCTGGKHRSVYIAEQLADYFRSRGKNVQSRHRTLEKRKP [P0A894] 4.48
